# credit: patent US20230348426A1

Target Under Test: human FPR2 (Homo sapiens (Human), UniProt P25090)
Sequence (P25090 whole entry): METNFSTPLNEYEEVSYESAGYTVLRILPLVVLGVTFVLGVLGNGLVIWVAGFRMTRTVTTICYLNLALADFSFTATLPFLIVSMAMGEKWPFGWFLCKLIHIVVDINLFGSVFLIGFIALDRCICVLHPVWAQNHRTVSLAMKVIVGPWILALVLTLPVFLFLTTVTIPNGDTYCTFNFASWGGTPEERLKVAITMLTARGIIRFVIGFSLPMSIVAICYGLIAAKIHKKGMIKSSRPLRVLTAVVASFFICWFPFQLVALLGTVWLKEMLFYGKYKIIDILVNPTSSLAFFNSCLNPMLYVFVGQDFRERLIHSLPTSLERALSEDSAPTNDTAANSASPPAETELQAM
Method: FPR2 cyclic adenosine monophosphate (cAMP) assay
Conditions Used: CHO cells overexpressing human FPR2; forskolin 5 µM; inhibition of cAMP production; read-out: hFPR2 cAMP2 EC50
Endpoint Label: EC50 (nM)

>>> reading("COc1ccc([C@@H]2CN(c3cccn(CC(O)C(F)(F)F)c3=O)C(=O)[C@H]2NC(=O)c2ccc(OC(F)F)cc2)cc1 (some centres unmarked) [Example 643]")
2.6
>>> reading("COc1cc(F)c([C@H]2[C@H](NC(=O)c3ccc(OC(F)F)cc3)C(=O)N(c3cccc(C4CCN(CCO)CC4)n3)[C@H]2C)c(F)c1")
0.8
>>> reading("COCC(CO)n1cccc(N2C[C@@H](c3c(F)cc(OC)cc3F)[C@H](NC(=O)c3ccc(OC(F)F)cc3)C2=O)c1=O (some centres unmarked) [Example 142]")
3.6
>>> reading("COCC(CO)n1ccc(C)c(N2C[C@@H](c3ccc(OC)cc3)[C@H](NC(=O)c3ccc(OC(F)(F)F)cc3)C2=O)c1=O (some centres unmarked) [Example 564]")
3.6
>>> reading("COCCn1ccnc1N1C[C@@H](c2c(F)cc(OC)cc2F)[C@H](NC(=O)c2ccc(Cl)cc2)C1=O")
11
>>> reading("COc1ccc([C@@H]2CN(c3ccnn(CCC(F)(F)F)c3=O)C(=O)[C@H]2NC(=O)c2ccc(OC(F)F)cc2)cc1 [Example 645]")
2.8
>>> reading("COc1cc(C2CCN(CCF)CC2)nc(N2C(=O)[C@@H](NC(=O)c3ccc(OC(F)F)cc3)[C@H](c3c(F)cc(OC)cc3F)[C@@H]2C)c1")
4.2
>>> reading("COc1cc(F)c([C@@H]2CN(c3nc(C4CCN(C)CC4)ccc3F)C(=O)[C@H]2NC(=O)c2ccc(OC(F)F)cc2)c(F)c1")
2.2
>>> reading("COc1cc(F)c([C@@H]2CN(c3nccc(N4CCOCC4)c3C(F)(F)F)C(=O)[C@H]2NC(=O)c2ccc(Cl)cc2)c(F)c1")
7.3
>>> reading("COc1cc(F)c([C@@H]2CN(c3cccn4c(C)nnc34)C(=O)[C@H]2NC(=O)c2ccc(OC(F)F)cc2)c(F)c1")
4.1

1. COc1cc(F)c([C@@H]2CN(c3ncccc3F)C(=O)[C@H]2NC(=O)c2ccc(OC(F)F)cc2)c(F)c1
2. COc1cc(F)c([C@@H]2CN(c3c(C)ccn(C4CCS(=O)(=O)C4)c3=O)C(=O)[C@H]2NC(=O)c2ccc(OC(F)F)cc2)c(F)c1 (some centres unmarked)
### Prompt Between 1 and 2 , whose recorded EC50 is greater? API: response body contains the label of the selected item.
### Response 2

a. COc1cc(F)c([C@@H]2CN(c3cccc(N4CCOCC4)n3)C(=O)[C@H]2NC(=O)c2ccc(OC(F)F)cc2)c(F)c1
b. COc1ccc([C@@H]2CN(c3cccn(CCC(F)(F)F)c3=O)C(=O)[C@H]2NC(=O)c2ccc(OC(F)(F)F)cc2)c(F)c1
c. COc1cc(F)c([C@@H]2CN(c3cc(NC(C)=O)cn(C)c3=O)C(=O)[C@H]2NC(=O)c2ccc(Cl)cc2)c(F)c1
### Prompt // sort entries: EC50, high to low A ranking is expressed here by listing the labels in the requested order.
### Response c, a, b

A. COCC(C(=O)N1CCOCC1)n1ccc(C)c(N2C[C@@H](c3c(F)cc(OC)cc3F)[C@H](NC(=O)c3ccc(OC(F)F)cc3)C2=O)c1=O (some centres unmarked)
B. CCn1cc2c(c(N3C[C@@H](c4c(F)cc(OC)cc4F)[C@@H](NC(=O)c4ccc(OC(F)F)cc4)C3=O)c1=O)CCCC2
### Prompt Of A and B , which carries the smaller reported EC50 figure? Give the label of your selection.
### Response A
(A: 3.4 nM, B: 8.7 nM)

###

Target Under Test: human FPR1 (Homo sapiens (Human))
Method: FPR1 cyclic adenosine monophosphate (cAMP) assay
Conditions Used: CHO cells overexpressing human FPR1; forskolin 10 µM; inhibition of cAMP production; read-out: hFPR1 cAMP EC50
Endpoint Label: EC50 (µM)

>>> reading("CCn1cnc(C)c(N2C[C@@H](c3c(F)cc(OC)cc3F)[C@H](NC(=O)c3ccc(Cl)cc3)C2=O)c1=O [Example 520]")
1.3

I. COc1cc(F)c([C@@H]2CN(c3cccn(CC(OC)C(F)(F)F)c3=O)C(=O)[C@H]2NC(=O)c2ccc(Cl)cc2)c(F)c1 (stereo partly drawn) [Example 417]
II. CCn1cccc(N2C[C@@H](c3ccc(OC)cc3F)[C@H](NC(=O)c3ccc(OC(F)F)cc3)C2=O)c1=O [Example 83]
### Prompt For the pair I and II , which entry has the numerically smaller recorded EC50? Use the label to indicate which entry you chose.
### Response II

###

Target Under Test: human FPR1 (Homo sapiens (Human), UniProt P21462)
Sequence (P21462 whole entry): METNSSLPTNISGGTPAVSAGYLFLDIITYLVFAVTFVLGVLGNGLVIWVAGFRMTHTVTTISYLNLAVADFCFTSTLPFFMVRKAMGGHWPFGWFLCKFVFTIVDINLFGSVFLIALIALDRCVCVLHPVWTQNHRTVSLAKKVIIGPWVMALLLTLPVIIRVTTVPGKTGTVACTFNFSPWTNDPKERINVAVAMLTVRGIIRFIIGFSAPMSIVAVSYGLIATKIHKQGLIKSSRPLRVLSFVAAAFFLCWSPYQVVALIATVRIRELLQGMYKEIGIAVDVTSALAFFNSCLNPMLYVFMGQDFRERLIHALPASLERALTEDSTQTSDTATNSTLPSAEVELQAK
Method: FPR1 cyclic adenosine monophosphate (cAMP) assay
Conditions Used: CHO cells overexpressing human FPR1; forskolin 10 µM; inhibition of cAMP production; read-out: hFPR1 cAMP EC50
pEC50: −log10 of the molar value.
Endpoint Label: pEC50

>>> reading("COc1cc(F)c([C@@H]2CN(c3c(C)ccn(CC4CCO4)c3=O)C(=O)[C@H]2NC(=O)c2ccc(Cl)cc2)c(F)c1 (some centres unmarked) [Example 614]")
7.48

P. COc1cc(F)c([C@@H]2CN(c3c(C)ccn(C4CCS(=O)(=O)C4)c3=O)C(=O)[C@H]2NC(=O)c2ccc(OC(F)F)cc2)c(F)c1 (some centres unmarked)
Q. COc1ccc([C@@H]2CN(c3cccn(CC(C)O)c3=O)C(=O)[C@H]2NC(=O)c2ccc(OC(F)F)cc2)c(F)c1 (some centres unmarked)
R. COc1cc(F)c([C@@H]2CN(c3c(C)ccn(C4CCOC4)c3=O)C(=O)[C@H]2NC(=O)c2ccc(OC(F)(F)F)cc2)c(F)c1 (some centres unmarked) [Example 350]
S. COc1cc(F)c([C@@H]2CN(c3cccn4c(C)nnc34)C(=O)[C@H]2NC(=O)c2ccc(OC(F)(F)F)cc2)c(F)c1
### Prompt List by increasing pEC50. When ranking, write the labels in the order the request describes.
### Response P, S, Q, R

###

Target Under Test: human FPR2 (Homo sapiens (Human), UniProt P25090)
Method: FPR2 cyclic adenosine monophosphate (cAMP) assay
Conditions Used: CHO cells overexpressing human FPR2; forskolin 5 µM; inhibition of cAMP production; read-out: hFPR2 cAMP2 EC50
Endpoint Label: EC50 (nM)

The examples below pair each entry with its known result.
>>> reading("COCCn1cccc(N2C(=O)[C@@H](NC(=O)c3ccc(OC(F)(F)F)cc3)[C@H](c3c(F)cc(OC)cc3F)[C@H]2C)c1=O")
5.2
>>> reading("COCC(CO)n1cccc(N2C[C@@H](c3c(F)cc(OC)cc3F)[C@H](NC(=O)c3ccc(OC(F)(F)F)cc3)C2=O)c1=O (stereo partly drawn) [Example 153]")
4
>>> reading("COc1cc(F)c([C@@H]2CN(c3cccn(CCO)c3=O)C(=O)[C@H]2NC(=O)c2ccc(OC(F)F)cc2)c(F)c1")
5.8
>>> reading("O=C(N[C@@H]1C(=O)N(c2cccn(CC(F)F)c2=O)C[C@H]1c1ccc(Cl)cc1)c1ccc(OC(F)F)cc1")
6.5

I. COc1cc(F)c([C@@H]2CN(c3cccn(CC(O)C(F)(F)F)c3=O)C(=O)[C@H]2NC(=O)c2ccc(OC(F)F)cc2)c(F)c1 (single isomer, unassigned) [Example 5]
II. COc1cc(F)c([C@@H]2CN(c3c(C)ccn(CC(O)C4CC4)c3=O)C(=O)[C@H]2NC(=O)c2ccc(OC(F)F)cc2)c(F)c1 (stereo partly drawn) [Example 685]
III. COc1cc(F)c([C@@H]2CN(c3nc(C(F)(F)F)ccc3N3CC[C@H](O)C3)C(=O)[C@H]2NC(=O)c2ccc(Cl)cc2)c(F)c1
### Prompt Give the ascending ranking of the items by reported EC50. # format: label list in the order the request specifies
### Response I, III, II

###

Target Under Test: human FPR2 (Homo sapiens (Human), UniProt P25090)
Method: FPR2 cyclic adenosine monophosphate (cAMP) assay
Conditions Used: CHO cells overexpressing human FPR2; forskolin 5 µM; inhibition of cAMP production; read-out: hFPR2 cAMP2 EC50
pEC50: −log10 of the molar value.
Endpoint Label: pEC50

Worked cases, pEC50 given:
>>> reading("COc1cc(C2CCN(CC(F)(F)F)CC2)nc(N2C(=O)[C@@H](NC(=O)c3ccc(OC(F)F)cc3)[C@H](c3c(F)cc(OC)cc3F)[C@@H]2C)c1 [Example 548]")
6.55
>>> reading("COc1cc(F)c([C@@H]2CN(c3c(C)ccn(CC(O)C(F)(F)F)c3=O)C(=O)[C@H]2NC(=O)c2ccc(OC(F)F)cc2)c(F)c1 (stereo partly drawn) [Example 294]")
8.06
>>> reading("COCCn1ccc(C)c(N2C[C@@H](c3c(F)cc(OC)cc3F)[C@H](NC(=O)c3ccc(Cl)cc3)C2=O)c1=O [Example 422]")
8.96
>>> reading("COCC(CO)n1ccc(C)c(N2C[C@@H](c3c(F)cc(OC)cc3F)[C@H](NC(=O)c3ccc(OC(F)(F)F)cc3)C2=O)c1=O (stereo partly drawn) [Example 427]")
8.36
>>> reading("COCCn1cccc(N2C[C@@H](c3ccc(Cl)cc3)[C@H](NC(=O)c3ccc(OC(F)(F)F)cc3)C2=O)c1=O [Example 107]")
8.54
>>> reading("COCC(CO)n1nccc(N2C[C@@H](c3c(F)cc(OC)cc3F)[C@H](NC(=O)c3ccc(OC(F)(F)F)cc3)C2=O)c1=O (stereo partly drawn) [Example 452]")
8.02
>>> reading("COc1cc(CO)nc(N2C[C@@H](c3c(F)cc(OC)cc3F)[C@H](NC(=O)c3ccc(OC(F)(F)F)cc3)C2=O)c1 [Example 587]")
8.96
>>> reading("COCCn1ccc(C)c(N2C[C@@H](c3c(F)cc(OC)cc3F)[C@H](NC(=O)c3ccc(OC(F)F)cc3)C2=O)c1=O [Example 232]")
8.20
>>> reading("COc1cc(F)c([C@@H]2CN(c3c(Cl)ccn(C)c3=O)C(=O)[C@H]2NC(=O)c2ccc(OC(F)F)cc2)c(F)c1 [Example 286]")
8.07
>>> reading("COCCn1cccc(N2C[C@@H](c3c(F)cc(OC)cc3F)[C@H](NC(=O)c3ccc(OC(F)(F)F)cc3)C2=O)c1=O [Example 302]")
8.00

A. COc1ccc([C@@H]2CN(c3c(C)ccn(CC(F)F)c3=O)C(=O)[C@H]2NC(=O)c2ccc(OC(F)(F)F)cc2)c(F)c1 [Example 182]
B. CCn1cc(C)c(C)c(N2C[C@@H](c3c(F)cc(OC)cc3F)C(NC(=O)c3ccc(OC(F)(F)F)cc3)C2=O)c1=O (stereo partly drawn) [Example 638]
### Prompt # min-compare on pEC50 between A and B Could you answer with the label of the item you picked?
### Response B
(B: 7.85, A: 8.32)

P. COc1cc(F)c([C@@H]2CN(c3c(C)ccn(C4CCNC4)c3=O)C(=O)[C@H]2NC(=O)c2ccc(Cl)cc2)c(F)c1 (stereo partly drawn) [Example 530]
Q. COc1cc(F)c([C@@H]2CN(c3cc(F)cc(OC(C)C)c3)C(=O)[C@H]2NC(=O)c2ccc(OC(F)(F)F)cc2)c(F)c1 [Example 14]
### Prompt Lab note: check whether P or Q has the lower measured pEC50. Bench note: the answer is the label of the chosen record.
### Response Q
(Q: 7.43, P: 8.51)

P. COc1ccc([C@@H]2CN(c3cccn(CC(C)O)c3=O)C(=O)[C@H]2NC(=O)c2ccc(OC(F)F)cc2)cc1 (stereo partly drawn) [Example 434]
Q. COc1ccc([C@@H]2CN(c3cccn(CCO)c3=O)C(=O)[C@H]2NC(=O)c2ccc(OC(F)(F)F)cc2)cc1 [Example 64]
R. COCC(C(=O)N(C)C)n1cccc(N2C[C@@H](c3c(F)cc(OC)cc3F)[C@H](NC(=O)c3ccc(OC(F)(F)F)cc3)C2=O)c1=O (stereo partly drawn) [Example 283]
### Prompt Sort entries by pEC50 from minimum to maximum value. // list labels; follow requested order
### Response R, P, Q
(R: 8.08, P: 8.36, Q: 8.77)

1. COc1cc(C2CCN(CC(C)(C)O)CC2)nc(N2C[C@@H](c3c(F)cc(OC)cc3F)[C@H](NC(=O)c3ccc(OC(F)F)cc3)C2=O)c1 [Example 720]
2. COc1cc(F)c([C@@H]2CN(c3cncn(C(CO)C(F)(F)F)c3=O)C(=O)[C@H]2NC(=O)c2ccc(Cl)cc2)c(F)c1 (stereo partly drawn) [Example 518]
### Prompt Lab note: record which item had the higher pEC50, 1 or 2 . # respond with the chosen item's label
### Response 2
(2: 8.70, 1: 8.41)

P. COc1cc(F)c([C@@H]2CN(c3c(Cl)ccn(C)c3=O)C(=O)[C@H]2NC(=O)c2ccc(Cl)cc2)c(F)c1 [Example 196]
Q. COc1cc(F)c([C@@H]2CN(c3c(C)ccn(CC(F)F)c3=O)C(=O)[C@H]2NC(=O)c2ccc(Cl)cc2)c(F)c1 [Example 421]
### Prompt Larger number for pEC50: P , or Q ? Identify your selection by its label.
### Response Q
(Q: 8.48, P: 8.28)
